MEASUREMENT_DESCRIPTION: alpha-synuclein stem-loop luciferase translation blockers – H4 neuroglioma cells, luminescence, confirmation (AID 1988)
Type: functional, cell-based
Activity calls are given as the source filed them.
Quick list: EC50 per entry.

| MOLECULE | EC50 |
| --- | --- |
| CCc1ccn2cc(-c3ccc4c(c3)OCO4)nc2c1 | 0.158 µM (active) |
| COC(=O)c1cccc(NC(=O)NC(=O)c2ccccc2Cl)c1 | 7.75 µM (active) |
| CC(=O)Nc1ccc(S(=O)(=O)N(Cc2cc3ccc(C)cc3nc2O)CC2CCCO2)cc1 (stereo unspecified) | 11.8 µM (active) |
| COc1cccc(Cn2c(-c3nonc3N)nc3ccccc32)c1 | 2.69 µM (active) |
| COc1cc2c(cc1OC)C(c1ccc(Br)cc1)NCC2 (stereo unspecified) | > 120 µM (not active) |
| COC(=O)Cc1csc(N/C=C2/C(=O)N(c3cccc(C(F)(F)F)c3)C(=O)c3ccccc32)n1 | 11.3 µM (active) |

###

TARGET_OR_TEST_SYSTEM: Eukaryotic translation initiation factor 4E (Mus musculus)
Sequence (P63073 whole entry): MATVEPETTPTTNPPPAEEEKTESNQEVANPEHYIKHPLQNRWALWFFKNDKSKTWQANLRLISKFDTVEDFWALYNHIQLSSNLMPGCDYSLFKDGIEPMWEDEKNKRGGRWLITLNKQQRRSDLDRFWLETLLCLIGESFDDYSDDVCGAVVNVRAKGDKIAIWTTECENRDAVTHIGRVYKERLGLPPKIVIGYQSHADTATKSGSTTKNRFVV
MEASUREMENT_DESCRIPTION: blockers of eIF4G binding by eIF4E – biochemical, TR-FRET, dose response (AID 855);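 also: potency for disrupting eIF4E binding to eIF4GI seen as loss of FRET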
Type: functional
Activity calls are given as the source filed them.
# IC50 per entry

| MOLECULE | TARGET_OR_TEST_SYSTEM | IC50 |
| --- | --- | --- |
| CC1(C2CC2)NC(=O)NC1=O (centres undefined) | Eukaryotic translation initiation factor 4E (Mus musculus) | > 64 µM (inactive) |
| COc1ccc(-c2noc(CSc3nc(N)c(-c4ccccc4)c(=O)[nH]3)n2)cc1OC | Eukaryotic translation initiation factor 4E (Mus musculus) | > 64 µM (inactive) |
| COc1cc(/C=C(\C#N)c2nc3ccccc3[nH]2)cc(OC)c1O | Eukaryotic translation initiation factor 4E (Mus musculus) | 50 µM (inactive) |
| Cc1ccc(Nc2nc(Oc3ccc(=O)[nH]n3)nc(N(C)C)n2)cc1 | Eukaryotic translation initiation factor 4E (Mus musculus) | > 64 µM (inactive) |

###

TARGET_OR_TEST_SYSTEM: Fatty acid synthase (Homo sapiens)
Sequence (P49327 whole entry): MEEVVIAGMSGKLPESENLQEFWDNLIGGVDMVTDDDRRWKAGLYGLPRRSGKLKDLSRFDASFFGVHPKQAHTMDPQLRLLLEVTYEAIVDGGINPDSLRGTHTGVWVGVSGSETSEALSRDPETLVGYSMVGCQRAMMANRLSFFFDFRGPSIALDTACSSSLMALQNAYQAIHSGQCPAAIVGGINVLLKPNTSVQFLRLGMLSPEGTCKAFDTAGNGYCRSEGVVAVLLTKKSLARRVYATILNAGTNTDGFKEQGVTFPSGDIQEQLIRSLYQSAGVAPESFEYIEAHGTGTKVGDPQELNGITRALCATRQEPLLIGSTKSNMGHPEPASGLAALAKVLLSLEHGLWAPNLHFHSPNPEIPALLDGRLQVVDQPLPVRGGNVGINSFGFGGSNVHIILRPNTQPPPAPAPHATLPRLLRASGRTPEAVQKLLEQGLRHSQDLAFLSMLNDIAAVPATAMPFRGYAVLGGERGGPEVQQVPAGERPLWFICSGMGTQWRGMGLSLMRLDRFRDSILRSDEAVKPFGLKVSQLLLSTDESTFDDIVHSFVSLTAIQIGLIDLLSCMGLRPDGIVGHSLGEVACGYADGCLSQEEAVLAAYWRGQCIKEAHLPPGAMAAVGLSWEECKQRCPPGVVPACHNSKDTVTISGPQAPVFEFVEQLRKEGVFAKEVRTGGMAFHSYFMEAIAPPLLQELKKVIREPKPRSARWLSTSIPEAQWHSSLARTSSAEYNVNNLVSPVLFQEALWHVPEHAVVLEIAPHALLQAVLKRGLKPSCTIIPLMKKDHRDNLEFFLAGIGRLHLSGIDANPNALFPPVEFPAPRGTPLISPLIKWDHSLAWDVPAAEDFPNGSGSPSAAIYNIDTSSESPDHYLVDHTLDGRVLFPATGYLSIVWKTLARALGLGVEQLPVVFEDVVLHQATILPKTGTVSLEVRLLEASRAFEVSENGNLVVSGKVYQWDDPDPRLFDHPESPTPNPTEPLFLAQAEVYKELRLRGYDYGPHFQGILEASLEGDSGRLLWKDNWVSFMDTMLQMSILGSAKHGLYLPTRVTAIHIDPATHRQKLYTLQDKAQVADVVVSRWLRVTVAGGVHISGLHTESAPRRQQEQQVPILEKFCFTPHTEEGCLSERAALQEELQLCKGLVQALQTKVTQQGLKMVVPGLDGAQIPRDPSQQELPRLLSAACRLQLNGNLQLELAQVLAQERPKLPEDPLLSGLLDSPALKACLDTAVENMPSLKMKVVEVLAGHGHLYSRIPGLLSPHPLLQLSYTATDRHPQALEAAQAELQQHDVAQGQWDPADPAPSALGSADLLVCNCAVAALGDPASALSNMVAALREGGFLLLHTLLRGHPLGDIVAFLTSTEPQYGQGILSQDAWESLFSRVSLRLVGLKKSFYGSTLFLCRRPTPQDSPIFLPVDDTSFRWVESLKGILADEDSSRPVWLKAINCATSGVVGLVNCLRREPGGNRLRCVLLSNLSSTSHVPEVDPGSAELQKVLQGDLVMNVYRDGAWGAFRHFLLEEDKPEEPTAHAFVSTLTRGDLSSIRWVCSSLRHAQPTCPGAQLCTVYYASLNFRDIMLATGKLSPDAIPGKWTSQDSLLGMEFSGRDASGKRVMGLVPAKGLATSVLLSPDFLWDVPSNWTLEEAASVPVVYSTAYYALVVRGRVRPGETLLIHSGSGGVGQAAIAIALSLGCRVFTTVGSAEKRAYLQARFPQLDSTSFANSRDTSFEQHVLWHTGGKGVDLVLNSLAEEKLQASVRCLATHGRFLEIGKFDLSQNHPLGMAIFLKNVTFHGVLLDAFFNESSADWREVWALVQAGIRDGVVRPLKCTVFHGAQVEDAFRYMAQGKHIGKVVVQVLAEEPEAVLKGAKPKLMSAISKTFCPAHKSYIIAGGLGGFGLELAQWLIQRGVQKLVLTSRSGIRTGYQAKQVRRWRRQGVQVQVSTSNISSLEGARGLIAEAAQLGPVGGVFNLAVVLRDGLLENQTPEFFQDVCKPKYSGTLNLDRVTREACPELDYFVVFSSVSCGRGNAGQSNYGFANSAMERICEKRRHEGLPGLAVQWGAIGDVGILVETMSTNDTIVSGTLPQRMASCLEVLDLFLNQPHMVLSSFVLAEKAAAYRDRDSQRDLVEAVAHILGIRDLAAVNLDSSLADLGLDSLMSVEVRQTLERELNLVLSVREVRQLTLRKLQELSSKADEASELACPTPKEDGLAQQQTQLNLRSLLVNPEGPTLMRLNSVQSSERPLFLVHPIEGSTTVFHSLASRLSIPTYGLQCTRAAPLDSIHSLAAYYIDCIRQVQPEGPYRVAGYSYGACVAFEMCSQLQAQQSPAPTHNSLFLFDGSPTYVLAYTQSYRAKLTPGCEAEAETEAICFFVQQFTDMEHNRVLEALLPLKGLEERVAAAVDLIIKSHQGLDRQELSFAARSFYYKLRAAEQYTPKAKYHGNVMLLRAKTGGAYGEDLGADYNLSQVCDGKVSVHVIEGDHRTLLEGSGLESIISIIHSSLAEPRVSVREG
MEASUREMENT_DESCRIPTION: inhibition of human FAS-TE enzyme activity – biochemical, kinetic fluorescence intensity, dose response (AID 624326);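 also: rate of fluorescence rise from hydrolysis of a fluorogenic O-methyl fluorescein ester substrate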
Type: functional
Activity calls are given as the source filed them.
Possible outcomes: label 1 for active, label 0 for inactive

| COMPOUND | TARGET_OR_TEST_SYSTEM | GROUP_LABEL |
| --- | --- | --- |
| O=C(O)COc1ccccc1C(Nc1ccccn1)c1cc(Cl)c2cccnc2c1O (configuration not stated) | Fatty acid synthase (Homo sapiens) | label 1 |
| CCN(CC)C(=O)C1CCCN(c2ccc([N+](=O)[O-])cc2/C=N/NC(=O)c2ccccc2)C1 (configuration not stated) | Fatty acid synthase (Homo sapiens) | label 1 |
| COc1ccc2cc3cc(C(=O)N4CCCC(C)C4)oc3nc2c1 (configuration not stated) | Fatty acid synthase (Homo sapiens) | label 1 |
| COc1ccc([N+](=O)[O-])cc1/C=N/NC(=O)/C(=C\c1cccs1)NC(=O)c1ccccc1 | Fatty acid synthase (Homo sapiens) | label 1 |
| C/C(=N\Nc1ccccn1)c1ccc(S(=O)(=O)NCc2ccco2)cc1 | Fatty acid synthase (Homo sapiens) | label 1 |
| O=C(Nc1ccc(Nc2ccccc2)cc1)c1cc([N+](=O)[O-])ccc1Cl | Fatty acid synthase (Homo sapiens) | label 1 |
| CC(C)(C)OC(=O)N1CCC(c2cc(O)n3ncc(C(=O)Nc4ccc(F)c(Cl)c4)c3n2)CC1 | Fatty acid synthase (Homo sapiens) | label 1 |
| CCN(CC)c1cc2nonc2c2nonc12 | Fatty acid synthase (Homo sapiens) | label 1 |
| Cc1ccc(-c2nnc3ccc(SCC(=O)N4CCCc5ccccc54)nn23)cc1 | Fatty acid synthase (Homo sapiens) | label 1 |
| O=C(Nc1ccc(Cc2ccncc2)cc1)c1cccc([N+](=O)[O-])c1 | Fatty acid synthase (Homo sapiens) | label 1 |
| O=C(CCNC(=O)c1ccc([N+](=O)[O-])cc1)NC1CCCCCC1 | Fatty acid synthase (Homo sapiens) | label 1 |
| O=C(Cn1cc([N+](=O)[O-])ccc1=O)NCc1ccc(Cl)cc1Cl | Fatty acid synthase (Homo sapiens) | label 0 |

###

# maps each entry to its IC50
TARGET_OR_TEST_SYSTEM: Genome polyprotein (dengue virus type 2, UniProt P29990)
MEASUREMENT_DESCRIPTION: flavivirus cap methylation enzyme inhibition – biochemical, confirmation dose response, primary screen (AID 588689)
Format: functional
The source made the active and inactive calls.

| COMPOUND | IC50 |
| --- | --- |
| CC(C)OP(=O)(OC(C)C)C1(NS(=O)(=O)c2ccc(Cl)cc2)C=C(Cl)C(=O)C(Cl)=C1 | 99.3 µM (active) |
| Cc1ccc2nc3cc([N+](=O)[O-])cc([N+](=O)[O-])c3cc2c1 | 9.85 µM (active) |
| Nc1cccc2c(O)cc(S(=O)(=O)O)cc12 | 42.7 µM (active) |
| O=C(O)COc1ccccc1C(Nc1ccccn1)c1cc(Cl)c2cccnc2c1O (stereo not given) | 43.3 µM (active) |
| Cc1ccc(-c2nn(-c3ccccc3)cc2/C=C2\SC(=S)N(CC(=O)O)C2=O)cc1 | 36.5 µM (active) |

###

TARGET_OR_TEST_SYSTEM: Rac GTPase-activating protein 1 (Homo sapiens)
Sequence (Q9H0H5 whole entry): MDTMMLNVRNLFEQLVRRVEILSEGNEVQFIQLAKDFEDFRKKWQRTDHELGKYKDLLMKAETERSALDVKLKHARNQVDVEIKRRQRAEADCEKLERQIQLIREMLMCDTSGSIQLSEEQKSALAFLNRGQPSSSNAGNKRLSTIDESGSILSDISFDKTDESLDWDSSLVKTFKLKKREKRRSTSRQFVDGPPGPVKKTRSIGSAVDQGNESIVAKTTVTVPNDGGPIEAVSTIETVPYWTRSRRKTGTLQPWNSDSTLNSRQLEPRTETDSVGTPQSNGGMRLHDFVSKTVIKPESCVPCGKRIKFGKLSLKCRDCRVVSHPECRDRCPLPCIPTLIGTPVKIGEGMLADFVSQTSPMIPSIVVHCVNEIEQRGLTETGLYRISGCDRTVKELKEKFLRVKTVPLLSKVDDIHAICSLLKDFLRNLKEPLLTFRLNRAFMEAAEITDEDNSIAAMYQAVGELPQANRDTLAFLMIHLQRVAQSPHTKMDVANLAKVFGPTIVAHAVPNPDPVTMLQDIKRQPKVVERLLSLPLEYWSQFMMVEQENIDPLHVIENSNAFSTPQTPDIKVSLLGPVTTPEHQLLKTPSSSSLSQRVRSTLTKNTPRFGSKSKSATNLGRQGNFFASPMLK
MEASUREMENT_DESCRIPTION: blockers of MgcRacGAP-driven Rac1 GTP hydrolysis – biochemical, ADP Hunter fluorescence, primary and confirmatory, confirmation (AID 624330)
Type: functional
Active and inactive are the calls of the source.
# IC50 values compiled below

| COMPOUND | IC50 |
| --- | --- |
| CCNc1nc(NCC)nc(N/N=C/c2ccc(O)c(O)c2)n1 | 45.5 µM (active) |
| COc1cc(/C=C(\C#N)c2nc3ccccc3[nH]2)cc(OC)c1O | 20 µM (active) |
| COc1ccc(NC2CCCN(C(=O)c3ccc(CSC)o3)C2)cc1OC (stereo unspecified) | 109 µM (active) |
| CN(C)CCCNCC(=O)c1c(-c2ccccc2)n(C)c2ccccc12 | 94.7 µM (active) |
| CN1C=CC=C/C1=C(\C#N)c1nc2ccccc2[nH]1 | 46.4 µM (active) |
| Nc1cccc2c(O)cc(S(=O)(=O)O)cc12 | 98.6 µM (active) |
| NC1=NC(=O)S/C1=C\c1ccc(O)cc1 | 15.7 µM (active) |
| CCN(CC)c1ccc(NC(=O)C2=CC=CN3CCS(=O)(=O)N=C23)cc1 | 67 µM (active) |
| O=C1CSC(=S)N1Nc1ccccc1 | 54 µM (active) |
| COc1cc(/C=N/NC(=O)c2c(-c3ccccc3)noc2C)ccc1O | 50.2 µM (active) |
| Cn1c(=O)[nH]c(N)c(Br)c1=O | 84.3 µM (active) |

###

Consider the following molecules and their measured EC50 readings.
TARGET_OR_TEST_SYSTEM: Heat shock factor protein 1 (Mus musculus, UniProt P38532)
Sequence (P38532 whole entry): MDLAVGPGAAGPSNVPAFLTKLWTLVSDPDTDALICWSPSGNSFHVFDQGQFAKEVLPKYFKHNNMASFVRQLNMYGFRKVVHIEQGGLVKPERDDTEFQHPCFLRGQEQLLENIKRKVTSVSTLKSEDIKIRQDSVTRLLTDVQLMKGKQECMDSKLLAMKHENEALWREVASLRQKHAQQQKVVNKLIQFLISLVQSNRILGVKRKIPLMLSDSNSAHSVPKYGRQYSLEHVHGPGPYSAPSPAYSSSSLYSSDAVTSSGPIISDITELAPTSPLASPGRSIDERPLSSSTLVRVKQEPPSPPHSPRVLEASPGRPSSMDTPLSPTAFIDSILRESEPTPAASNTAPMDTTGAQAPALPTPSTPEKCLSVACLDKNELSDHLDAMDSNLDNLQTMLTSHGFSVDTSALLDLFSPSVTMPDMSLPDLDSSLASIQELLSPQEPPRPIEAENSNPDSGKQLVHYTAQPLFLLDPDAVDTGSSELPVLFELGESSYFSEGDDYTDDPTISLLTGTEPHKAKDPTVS
MEASUREMENT_DESCRIPTION: decrease of HSF1-responsive luciferase luminescence – cell-based, NIH3T3, dose retest, confirmation (AID 2382);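 also: NIH3T3 fibroblasts with HSF1-driven luciferase reporter stressed by proteasome inhibitor MG132; luminescence from HSF1-driven luciferase expression after 8 hours of MG132 stress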
Type: functional
Activity calls are given as the source filed them.

| MOLECULE | EC50 |
| --- | --- |
| CC(C)CNS(=O)(=O)c1ccc(CCC(=O)N2CCOCC2)cc1 | > 195 µM (not active) |
| CCCCSC1=C(C#N)C(c2ccccc2C)CC(=O)N1 (stereo unspecified) | > 195 µM (not active) |
| Cc1cc(S(=O)(=O)N2CCCC2)ccc1OCC(=O)NCc1ccccc1 | > 195 µM (not active) |
| COc1cccc(-c2nnc3n2N=C(C(C)(C)C)CS3)c1 | 2.96 µM (active) |
| COc1ccccc1N(C)S(=O)(=O)c1ccc(C(=O)NC(C)c2ccccc2)cc1 (stereo unspecified) | > 195 µM (not active) |
| Cc1ccc2nc(O)c(CN(C(=O)c3cccc([N+](=O)[O-])c3)C(C)C)cc2c1 | > 195 µM (not active) |
| CCN1CCN(c2cc(C)c3cc(NC(=S)N4CCCC(C)C4)ccc3n2)CC1 (stereo unspecified) | 11 µM (active) |
| Cc1cc(C)c(C#N)c(SCC(=O)NC(C)(C)C)n1 | > 195 µM (not active) |
| COc1cccc2c(=O)n(CC(=O)NCCc3ccccc3)ccc12 | > 195 µM (not active) |
| COC(=O)c1ccc2c(=O)n(-c3ccccc3)c(=S)[nH]c2c1 | > 195 µM (not active) |
| Cc1noc(NS(=O)(=O)c2ccc(N3Cc4ccccc4C3=O)cc2)c1C | > 195 µM (not active) |

###

Measured AC50 (Cytochrome P450 1A2 (Homo sapiens, UniProt P05177))

| MOLECULE | AC50 |
| --- | --- |
| O=C(CCCCCN1C(=O)c2ccccc2C1=O)NCc1ccccn1 | 14.1 µM (inconclusive) |
| COc1ccc(Oc2nc(C)cc(C)c2S(C)(=O)=O)cc1 | 11.2 µM (inconclusive) |
| Cc1cc2ccc(OC(=O)c3ccc(NC(=N)N)cc3)cc2oc1=O | 2.51 µM (inconclusive) |
| Cc1ccccc1NS(=O)(=O)c1ccc2ncc(C(=O)NCCCN3CCOCC3)c(O)c2c1 | 39.8 µM (inconclusive) |
| O=C1NCN(c2ccccc2)C12CCN(CCCOc1ccc(F)cc1)CC2 [SPIRAMIDE] | 39.8 µM (inconclusive) |
| COc1ccc(Oc2nccc(-c3ccc(F)cc3)c2C#N)cc1 | 5.01 µM (inconclusive) |
| Cc1ccc(C(=O)C(OC(=O)CCC(=O)Nc2cccc(C)c2)c2ccccc2)cc1 (configuration not stated) | 17.8 µM (inconclusive) |
